Tested on: SW48 (Colorectal Carcinoma);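 also: after 72 h of two-drug dosing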
Assay: Bliss excess, mean over the matrix (fraction); higher = more synergy
Kindly supply the reported Bliss excess values for the records listed here.
Provide a numeric answer; units are not to be included.

-- ask Can you share its Bliss excess? I mean this molecule: COc1cccc(OCCCN)c1-c1cc(Nc2cnc(C#N)cn2)n[nH]1 [Prexasertib] + C=CCn1c(=O)c2cnc(Nc3ccc(N4CCN(C)CC4)cc3)nc2n1-c1cccc(C(C)(C)O)n1 [AZD1775] (first compound max 1 µM, partner max 1 µM)
-- reply 0.1

-- ask Can you share its Bliss excess? I mean this molecule: Cn1cnc2c(F)c(Nc3ccc(Br)cc3Cl)c(C(=O)NOCCO)cc21 [Selumetinib] + CC(C)n1c(=O)n(C)c2cnc3cc(F)c(-c4ccc(OCCCN5CCCCC5)nc4)cc3c21 [AZD1390] (first compound max 10 µM, 7x7, partner max 0.3 µM)
-- reply -0.0561

-- ask Can you share its Bliss excess? I mean this molecule: Cc1nc(-c2cn3c(n2)-c2ccc(-c4cnn(C(C)(C)C(N)=O)c4)cc2OCC3)n(C(C)C)n1 [Taselisib] + O=C(Nc1ccc2[nH]nc(-c3ccncc3)c2c1)[C@@H]1CCN(CC(=O)N2CCN(c3ccc(-c4ncccn4)cc3)CC2)C1 [SCH772984] (first compound max 10 µM, 7x7, partner max 5 µM)
-- reply 0.203

-- ask Can you share its Bliss excess? I mean this molecule: C[C@@H](Nc1cc(F)cc(F)c1)c1cc(C(=O)N(C)C)cc2c(=O)cc(N3CCOCC3)oc12 [AZD8186] + C1CN(CCC1(C(=O)N[C@@H](CCO)C2=CC=C(C=C2)Cl)N)C3=NC=NC4=C3C=CN4 [AZD5363] (first compound max 10 µM, 7x7, partner max 10 µM)
-- reply -0.024
